Tested on: rodent lifetime carcinogenesis bioassay, tumor incidence TD50
Assay: carcinogenic potency in animals, long-term in vivo studies, CPDB compilation (AID 1745844)
Conditions: mouse; strain B6C3F1; males; in feed; site: stomach, glandular; lesion: sarcoma; dosed 96 weeks; study length 96 weeks

compound-string: Oc1ccc2c(c1)OCO2
unit-spec: mg/kg/day
TD50: 41300

---

Tested on: rodent lifetime carcinogenesis bioassay, tumor incidence TD50
Assay: carcinogenic potency in animals, long-term in vivo studies, CPDB compilation (AID 1745844)
Conditions: rat; strain Wistar; males; inhaled; site: lung; lesion: alveolar/bronchiolar adenoma; dosed 26 weeks; study length 130 weeks

compound-string: [Cl][Cd][Cl]
TD50, mg/kg/day: 0.0521
